# assay-method-text: Cmax in human interstitial-space fluid of subcutaneous adipose tissue at 500 mg, po, bid for 3 to 5 days
# Type: ADME, organism-based
measure: Cmax (ng/mL)
Only the number, expressed in ng/mL, is required.

Task item: Look up Cmax: CC[C@H]1OC(=O)[C@H](C)[C@@H](O[C@H]2C[C@@](C)(OC)[C@@H](O)[C@H](C)O2)[C@H](C)[C@@H](O[C@@H]2O[C@H](C)C[C@H](N(C)C)[C@H]2O)[C@](C)(OC)C[C@@H](C)C(=O)[C@H](C)[C@@H](O)[C@]1(C)O [CLARITHROMYCIN]
Reply: 230

###

# assay-method-text: Protein binding in human plasma at 250 mg, po
# Format: ADME, organism-based
# measurement-conditions: read-out: PPB (converted)
measure: fraction unbound

Task item: What value of measured fraction unbound is listed for CC[C@H]1OC(=O)[C@H](C)[C@@H](O[C@H]2C[C@@](C)(OC)[C@@H](O)[C@H](C)O2)[C@H](C)[C@@H](O[C@@H]2O[C@H](C)C[C@H](N(C)C)[C@H]2O)[C@](C)(OC)C[C@@H](C)C(=O)[C@H](C)[C@@H](O)[C@]1(C)O [CLARITHROMYCIN] ?
Reply: 0.287

###

# assay-method-text: Terminal half life in fasting human plasma unbound fraction at 250 mg, po
# Format: ADME, organism-based
# measurement-conditions: read-out: beta t1/2 (converted)
measure: half-life (h)
Unit h implied. Number only.

Task item: Which half-life value is on record for `CC[C@H]1OC(=O)[C@H](C)[C@@H](O[C@H]2C[C@@](C)(OC)[C@@H](O)[C@H](C)O2)[C@H](C)[C@@H](O[C@@H]2O[C@H](C)C[C@H](N(C)C)[C@H]2O)[C@](C)(OC)C[C@@H](C)C(=O)[C@H](C)[C@@H](O)[C@]1(C)O` ?
Reply: 1.9

###

# assay-method-text: Cmax in human interstitial-space fluid of skeletal muscle at 500 mg, po, bid for 3 to 5 days
# Type: ADME, organism-based, Muscle tissue
# Design: dose 500 mg, route oral
measure: Cmax (ng/mL)
Provide the reading as a plain figure in ng/mL.

Task item: Dear colleague, I am looking for the recorded Cmax of the following molecule: `CC[C@H]1OC(=O)[C@H](C)[C@@H](O[C@H]2C[C@@](C)(OC)[C@@H](O)[C@H](C)O2)[C@H](C)[C@@H](O[C@@H]2O[C@H](C)C[C@H](N(C)C)[C@H]2O)[C@](C)(OC)C[C@@H](C)C(=O)[C@H](C)[C@@H](O)[C@]1(C)O`
Reply: 230

###

# assay-method-text: AUC (0 to 24 hrs) in human plasma at 500 mg, po, bid for 3 to 5 days
# Assay type: ADME, organism-based
# Design: time < 24 hr, dose 500 mg, route oral
measure: AUC at 24 h
Respond with a number, then the unit of measure.

Task item: # lookup: AUC at 24 h of `CC[C@H]1OC(=O)[C@H](C)[C@@H](O[C@H]2C[C@@](C)(OC)[C@@H](O)[C@H](C)O2)[C@H](C)[C@@H](O[C@@H]2O[C@H](C)C[C@H](N(C)C)[C@H]2O)[C@](C)(OC)C[C@@H](C)C(=O)[C@H](C)[C@@H](O)[C@]1(C)O`
Reply: 26800 ng·h/mL

###

# assay-method-text: Tmax in human plasma unbound fraction at 500 mg, po, bid for 3 to 5 days
# Format: ADME, organism-based
measure: Tmax

Task item: Sample CC[C@H]1OC(=O)[C@H](C)[C@@H](O[C@H]2C[C@@](C)(OC)[C@@H](O)[C@H](C)O2)[C@H](C)[C@@H](O[C@@H]2O[C@H](C)C[C@H](N(C)C)[C@H]2O)[C@](C)(OC)C[C@@H](C)C(=O)[C@H](C)[C@@H](O)[C@]1(C)O [CLARITHROMYCIN] — what was its Tmax?
Reply: 3.2 h

###

# assay-method-text: Protein binding in human plasma at 500 mg, po bid for 3 to 5 days
# Type: ADME, organism-based
# measurement-conditions: read-out: PPB (converted)
measure: fraction unbound
Just the number, please.

Task item: Suppose we examine the compound `CC[C@H]1OC(=O)[C@H](C)[C@@H](O[C@H]2C[C@@](C)(OC)[C@@H](O)[C@H](C)O2)[C@H](C)[C@@H](O[C@@H]2O[C@H](C)C[C@H](N(C)C)[C@H]2O)[C@](C)(OC)C[C@@H](C)C(=O)[C@H](C)[C@@H](O)[C@]1(C)O` ; what fraction unbound value has been reported?
Reply: 0.231

###

# assay-method-text: AUC (0 to 24 hrs) in fasting human plasma at 250 mg, po
# Type: ADME, organism-based
# Parameters: dose 250 mg, time < 24 hr, route oral
measure: AUC(0-t) at 24 h (ng·h/mL)
Express the result in ng·h/mL but write the number alone.

Task item: Consider the compound `CC[C@H]1OC(=O)[C@H](C)[C@@H](O[C@H]2C[C@@](C)(OC)[C@@H](O)[C@H](C)O2)[C@H](C)[C@@H](O[C@@H]2O[C@H](C)C[C@H](N(C)C)[C@H]2O)[C@](C)(OC)C[C@@H](C)C(=O)[C@H](C)[C@@H](O)[C@]1(C)O` and give its measured AUC(0-t) at 24 h.
Reply: 4450

###

# assay-method-text: Cmax in human plasma at 500 mg, po, bid for 3 to 5 days
# Assay type: ADME, organism-based
# Parameters: dose 500 mg, route oral
measure: Cmax (ng/mL)
Give just the number in ng/mL; leave the unit off.

Task item: Consider the compound shown here: `CC[C@H]1OC(=O)[C@H](C)[C@@H](O[C@H]2C[C@@](C)(OC)[C@@H](O)[C@H](C)O2)[C@H](C)[C@@H](O[C@@H]2O[C@H](C)C[C@H](N(C)C)[C@H]2O)[C@](C)(OC)C[C@@H](C)C(=O)[C@H](C)[C@@H](O)[C@]1(C)O` What is its recorded Cmax?
Reply: 2210

###

# assay-method-text: AUC (0 to 8 hrs) in fasting human interstitial-space fluid of subcutaneous adipose tissue at 250 mg, po
# Type: ADME, organism-based
measure: AUC(0-t) (ng·h/mL)
Your answer should be a plain number; it is taken to be in ng·h/mL.

Task item: Given the entry CC[C@H]1OC(=O)[C@H](C)[C@@H](O[C@H]2C[C@@](C)(OC)[C@@H](O)[C@H](C)O2)[C@H](C)[C@@H](O[C@@H]2O[C@H](C)C[C@H](N(C)C)[C@H]2O)[C@](C)(OC)C[C@@H](C)C(=O)[C@H](C)[C@@H](O)[C@]1(C)O [CLARITHROMYCIN] , report its measured AUC(0-t).
Reply: 240

###

# assay-method-text: Ratio of AUC (0 to 24 hrs) in human interstitial-space fluid of skeletal muscle to free AUC (0 to 24 hrs) in human plasma at 500 mg, po bid
measure: Kp uu
Could you keep your reply to the number by itself?

Task item: Which Kp uu is reported for this compound? `CC[C@H]1OC(=O)[C@H](C)[C@@H](O[C@H]2C[C@@](C)(OC)[C@@H](O)[C@H](C)O2)[C@H](C)[C@@H](O[C@@H]2O[C@H](C)C[C@H](N(C)C)[C@H]2O)[C@](C)(OC)C[C@@H](C)C(=O)[C@H](C)[C@@H](O)[C@]1(C)O`
Reply: 0.41

###

# assay-method-text: Tmax in human interstitial-space fluid of skeletal muscle at 500 mg, po, bid for 3 to 5 days
# Format: ADME, organism-based, Muscle tissue
measure: Tmax (h)
Report the figure in h without appending any unit label.

Task item: # get_value(readout='Tmax', item= `CC[C@H]1OC(=O)[C@H](C)[C@@H](O[C@H]2C[C@@](C)(OC)[C@@H](O)[C@H](C)O2)[C@H](C)[C@@H](O[C@@H]2O[C@H](C)C[C@H](N(C)C)[C@H]2O)[C@](C)(OC)C[C@@H](C)C(=O)[C@H](C)[C@@H](O)[C@]1(C)O` )
Reply: 3.8

###

# assay-method-text: Ratio of AUC (0 to 24 hrs) in fasting human interstitial-space fluid of skeletal muscle to free AUC (0 to 24 hrs) in fasting human plasma at 250 mg, po
# Assay type: ADME, organism-based
# measurement-conditions: read-out: Ratio AUC
measure: Kp uu
Please give the numeric answer without any surrounding text.

Task item: Data request, read-out Kp uu, for `CC[C@H]1OC(=O)[C@H](C)[C@@H](O[C@H]2C[C@@](C)(OC)[C@@H](O)[C@H](C)O2)[C@H](C)[C@@H](O[C@@H]2O[C@H](C)C[C@H](N(C)C)[C@H]2O)[C@](C)(OC)C[C@@H](C)C(=O)[C@H](C)[C@@H](O)[C@]1(C)O`
Reply: 0.42

###

# assay-method-text: AUC (0 to 24 hrs) in human interstitial-space fluid of skeletal muscle at 500 mg, po, bid for 3 to 5 days
# Type: ADME, organism-based, Muscle tissue
# Design: dose 500 mg, time < 24 hr, route oral
measure: AUC at 24 h (ng·h/mL)
The reply should be a number in ng·h/mL, with the unit left off.

Task item: Suppose we examine the compound `CC[C@H]1OC(=O)[C@H](C)[C@@H](O[C@H]2C[C@@](C)(OC)[C@@H](O)[C@H](C)O2)[C@H](C)[C@@H](O[C@@H]2O[C@H](C)C[C@H](N(C)C)[C@H]2O)[C@](C)(OC)C[C@@H](C)C(=O)[C@H](C)[C@@H](O)[C@]1(C)O` ; what AUC at 24 h value has been reported?
Reply: 2420

The reported measurements were obtained from ChEMBL document CHEMBL1154400.
